# Test system: HCT-116
# assay_name: NCI tumour cell line growth inhibition, 48 h
Active and inactive are the calls of the source. Rule as the data show it: active = GI50 up to about 1.1 µM and inactive = higher.
Could you please report measured GI50 for the items listed next?

What value of GI50 has been recorded for this entry: COc1cccc(Nc2nc(-c3cccs3)nc3cc(OC)c(OC)cc23)c1
26.4 µM (inactive)

Cc1cc(NS(=O)(=O)c2ccc(Nc3c4ccccc4nc4c(C(=O)Nc5ccc(S(=O)(=O)N=C(N)N)cc5)ccc(Cl)c34)cc2)no1 , same question.
53.8 µM (inactive)

COc1cc2ccc1OCc1cccc(n1)COc1ccc(cc1OC)/C=N\CCNCC/N=C\2 , same question.
45.4 µM (inactive)

CC1=C[C@H](O)[C@@]2(C)[C@@H]([C@@H]1C)[C@H]1CC[C@@H]3[C@@]4(C)CC[C@H](O)C(C)(C)[C@@H]4CC[C@@]3(C)[C@]1(C)C[C@@H]2O , same question.
12.4 µM (inactive)

C=CCc1cccc(/C=N\N/C(N)=N/O)c1O , same question.
5.33 µM (inactive)

O=C(NCCCN(CCCCN(CCCNC(=O)C(F)(F)F)Cc1ccccc1)Cc1ccccc1)C(F)(F)F , same question.
11.5 µM (inactive)

NC(CC1=CCC=CC1)C(=O)O (stereo not given) , same question.
55.1 µM (inactive)

COc1ccc(Cc2c(-c3ccc(C)cc3)n[nH]c(=O)c2C2C(=O)N(c3ccccc3)N=C2c2ccccc2)cc1 (stereo not given) , same question.
21.8 µM (inactive)

OCC(O)COc1c(Cl)ccc(Cl)c1Cl (stereo not given) , same question.
> 100 µM (inactive)

O=C(Nc1cnc(O)nc1O)Oc1ccccc1 , same question.
> 100 µM (inactive)

CCCCCC(C/C=N/N(C)C)C(O)(C(F)(F)F)C(F)(F)F (stereo not given) , same question.
32 µM (inactive)

COc1cc(-c2nc3ccccn3c2/N=C/c2cc(Br)cc(Br)c2O)ccc1O , same question.
18.4 µM (inactive)

O=C1Oc2ccccc2C(=O)/C1=C\Nc1nc(-c2ccc(O)c(O)c2)cs1 , same question.
2.7 µM (inactive)

N#Cc1nc(NC(=O)c2ccccc2)sc1N , same question.
> 10 µM (inactive)

CSCCCNC(=O)c1csc(-c2csc(CCNC(=O)CNC(=O)OC(C)(C)C)n2)n1 , same question.
> 100 µM (inactive)

###

Could you please report measured GI50 for the items listed next?
# Tested on: KM12
# assay_name: NCI tumour cell line growth inhibition, 48 h
Calls of active or inactive are those of the source. Rule as the data show it: active = GI50 up to about 1.1 µM and inactive = higher.

What value of GI50 has been recorded for this entry: Oc1ccc(/C=N/NC(=S)Nc2cccnc2)nc1
6.71 µM (inactive)

C=C=C(C(=O)OC)[S+]([O-])c1ccc([N+](=O)[O-])cc1[N+](=O)[O-] (configuration not stated) , same question.
33.7 µM (inactive)

CC1(CO)OC(n2cc(C(=O)NC(=O)OCc3ccccc3)c(=O)[nH]c2=O)CC1O (configuration not stated) , same question.
> 100 µM (inactive)

CCN1C(Cl)=NS(=O)(=O)c2ccccc21 , same question.
51.8 µM (inactive)

CN/C=C(/c1ccc(OC)cc1)C(O)c1ccc(OC)c(OC)c1 (configuration not stated) , same question.
> 100 µM (inactive)

CC1(O)CC23CC1CCC2(C)C12CCCC(C)(C(=O)O1)C2CC3O (configuration not stated) , same question.
> 100 µM (inactive)

Cc1cccc(C(O)c2ccncc2)c1O (configuration not stated) , same question.
> 100 µM (inactive)

CSc1ccn(C2CC(F)C(CO)O2)c(=O)n1 (configuration not stated) , same question.
> 100 µM (inactive)

CC(C)=NNc1snnc1C(N)=O , same question.
> 100 µM (inactive)

Cc1ccc(OCC2OC(n3cnc4c(Cl)nc(Cl)nc43)CC2Oc2ccc(C)cc2)cc1 (configuration not stated) , same question.
1.7 µM (inactive)

COC(=O)CCCC(=O)O , same question.
> 100 µM (inactive)

Oc1ccccc1/C=N/Nc1nnc2c3ccccc3c3ccccc3c2n1 , same question.
71.4 µM (inactive)
